# protocol.text: basal 3T3-L1 adipocyte mitochondrial potential changes, profiling panel, cell-based, JC-1 fluorescence, 3T3-L1 adipocytes, 24 h, 100 nL compound (AID 1168); further: test concentration not given here
# condition.info: JC-1 mitochondrial fluorescence, higher = more signal, called active from +8 up or from −8 down
Recorded z-score by entry
Reply with just the number.

Answered examples (3):
COc1cc(CO)cc(I)c1O[C@H]1C=C(C(=O)NCCO)C[C@@H](N(CCN2CCOCC2)C(=O)C2CCOC2)[C@@H]1O (some centres undefined) : 0.57
O=C1NCC(=O)N2[C@@H]1C[C@@H](C(=O)O)[C@H]2c1cccc(OCCO)c1 : -0.16
CCOC1=C2C(CN(S(=O)(=O)c3ccc(C)cc3)C2c2ccc(C)cc2)C2C(=O)N(c3ccccc3)C(=O)C2C1 (centres undefined) : 1.2

Specify z-score for "C=C(/C(=C/C[C@@H](OC(C)=O)c1ccc(OCCO)cc1)c1cnc2ccccc2c1)C(C)C" and stop.
-1.27
